biological target: CBG (corticosteroid-binding globulin, transcortin) (Sus scrofa); construct: quantity of cortisol specifically fixed to the glycoproteins adsorbed on the gel; from tissue; host or cells: pig blood plasma (Large White and Meishan, n = 12 each); test: solid phase fixation (radiobinding) test of cortisol binding to plasma CBG, Concavalin A-Sepharose, Scatchard analysis; parameters: species or system pig; details: Large White pigs, n = 12, plasma CBG, 4° C.; read-out: Kd (affinity of CBG for cortisol)
Sequence (Q9GK37 23-406): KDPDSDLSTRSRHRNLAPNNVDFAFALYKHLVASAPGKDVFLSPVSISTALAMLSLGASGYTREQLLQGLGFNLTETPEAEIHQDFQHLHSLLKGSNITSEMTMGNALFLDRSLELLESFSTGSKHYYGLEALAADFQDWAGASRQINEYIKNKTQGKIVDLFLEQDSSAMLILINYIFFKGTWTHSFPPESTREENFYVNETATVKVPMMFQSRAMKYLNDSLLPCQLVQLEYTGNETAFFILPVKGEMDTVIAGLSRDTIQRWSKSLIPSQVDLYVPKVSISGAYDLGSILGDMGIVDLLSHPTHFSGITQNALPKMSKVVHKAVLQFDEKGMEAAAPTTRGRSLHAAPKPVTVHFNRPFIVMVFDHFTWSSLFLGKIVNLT
pKd: −log10 of the molar value.
readout_name: pKd

>>> recorded_number("C[C@]12CCC(=O)C=C1CC[C@@H]1[C@@H]2[C@@H](O)C[C@@]2(C)[C@H]1CC[C@]2(O)C(=O)CO")
9.42
